Recorded below: pIC50, system Receptor-type tyrosine-protein kinase FLT3 (Homo sapiens, UniProt P36888, D835Y/ITD).
Keep it numeric: pIC50 is minus log10 of the concentration in mol/L.

Exercise: Data request, read-out pIC50, for COc1cc2c(Oc3ccc(NC(=O)Nc4cc(C(C)(C)C)on4)cc3F)ccnc2cc1OCC(C)C
Key: 7.20

Exercise: Data request, read-out pIC50, for CC(C)(C)c1cc(NC(=O)Nc2ccc(Oc3ccnc4[nH]ncc34)c(F)c2)no1
Key: 7.46

Exercise: Data request, read-out pIC50, for COc1cc2nccc(Oc3ccc(NC(=O)Nc4cc(C(C)(C)C)on4)cc3F)c2cc1OC(C)C
Key: 7.97

Exercise: Data request, read-out pIC50, for COCCOc1cc2nccc(Oc3ccc(NC(=O)Nc4cc(C(C)(C)C)on4)cc3F)c2cc1OCCOC
Key: 7.96

Exercise: Data request, read-out pIC50, for CCOc1cc2c(Oc3ccc(NC(=O)Nc4cc(C(C)(C)C)on4)cc3F)ccnc2cc1OC
Key: 7.96

----------
target: Receptor-type tyrosine-protein kinase FLT3 (Homo sapiens, UniProt P36888, F691L/ITD)
readout label: log10 IC50 (log10 of the value in µM)
Quick note: numbers are log10 of IC50, with µM as the unit.

Exercise: Data request, read-out log10 IC50, for COc1cc2nccc(Oc3ccc(NC(=O)Nc4cc(C(C)(C)C)on4)cc3F)c2cc1OC(C)C
Key: -1.64

Exercise: Data request, read-out log10 IC50, for COc1cc2ncnc(Oc3ccc(NC(=O)Nc4cc(C(C)(C)C)on4)cc3F)c2cc1OC
Key: -1.86

Exercise: Data request, read-out log10 IC50, for CCCOc1cc2c(Oc3ccc(NC(=O)Nc4cc(C(C)(C)C)on4)cc3F)ccnc2cc1OC
Key: -0.53

Exercise: Data request, read-out log10 IC50, for CCOc1cc2nccc(Oc3ccc(NC(=O)Nc4cc(C(C)(C)C)on4)cc3F)c2cc1OC
Key: -2.08

Exercise: Data request, read-out log10 IC50, for CCOc1cc2c(Oc3ccc(NC(=O)Nc4cc(C(C)(C)C)on4)cc3F)ccnc2cc1OC
Key: -1.52

Exercise: Data request, read-out log10 IC50, for CC(C)(C)c1cc(NC(=O)Nc2ccc(Oc3ncnc4[nH]ncc34)c(F)c2)no1
Key: -0.97

Exercise: Data request, read-out log10 IC50, for CC(C)(C)c1cc(NC(=O)Nc2ccc(Oc3ccnc4[nH]ncc34)c(F)c2)no1
Key: -1.46

Exercise: Data request, read-out log10 IC50, for COc1cc2c(Oc3ccc(NC(=O)Nc4cc(C(C)(C)C)on4)cc3F)ccnc2cc1OCC1CCCC1
Key: -0.72

----------
Recorded below: pIC50, system Receptor-type tyrosine-protein kinase FLT3 (Homo sapiens, UniProt P36888, D835Y/ITD).
Keep it numeric: pIC50 is minus log10 of the concentration in mol/L.

Exercise: Hello, I am looking for reported pIC50 with Receptor-type tyrosine-protein kinase FLT3 (Homo sapiens, UniProt P36888, D835Y/ITD) for COc1cc2ncnc(Oc3ccc(NC(=O)Nc4cc(C(C)(C)C)on4)cc3F)c2cc1OC . Could you help?
Key: 8.10

Exercise: Hello, I am looking for reported pIC50 with Receptor-type tyrosine-protein kinase FLT3 (Homo sapiens, UniProt P36888, D835Y/ITD) for CCOc1cc2nccc(Oc3ccc(NC(=O)Nc4cc(C(C)(C)C)on4)cc3F)c2cc1OC . Could you help?
Key: 8.22

Exercise: Hello, I am looking for reported pIC50 with Receptor-type tyrosine-protein kinase FLT3 (Homo sapiens, UniProt P36888, D835Y/ITD) for COc1cc2c(Oc3ccc(NC(=O)Nc4cc(C(C)(C)C)on4)cc3F)ccnc2cc1OCC1CCCC1 . Could you help?
Key: 6.98

Exercise: Hello, I am looking for reported pIC50 with Receptor-type tyrosine-protein kinase FLT3 (Homo sapiens, UniProt P36888, D835Y/ITD) for COc1cc2nccc(Oc3ccc(NC(=O)Nc4cc(C(C)(C)C)on4)cc3F)c2cc1OCCCN1CCOCC1 . Could you help?
Key: 8.20

Exercise: Hello, I am looking for reported pIC50 with Receptor-type tyrosine-protein kinase FLT3 (Homo sapiens, UniProt P36888, D835Y/ITD) for COCCOc1cc2c(Oc3ccc(NC(=O)Nc4cc(C(C)(C)C)on4)cc3F)ccnc2cc1OC . Could you help?
Key: 8.00

Exercise: Hello, I am looking for reported pIC50 with Receptor-type tyrosine-protein kinase FLT3 (Homo sapiens, UniProt P36888, D835Y/ITD) for COc1cc2c(Oc3ccc(NC(=O)Nc4cc(C(C)(C)C)on4)cc3F)ncnc2cn1 . Could you help?
Key: 7.19
